# measured_target: T1, monkey GPC3-His protein (monkey)
# T1 construct: Bought recombinant protein; also called monkey GPC3 protein
# assay_protocol: ELISA, monkey GPC3-His coated;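 also: Plate-coated antigen at 1 µg/mL, antibody binding 2 h at 37 °C, detected with HRP-labeled secondary antibody and TMB, absorbance at 450 nm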
property_label: OD450 at 0.001 nM (OD450)
Reply with just the number (in OD450).

{"binder": "F1.153.1 (antibody, human IgG1, kappa, V domains shown, Human-murine chimeric antibody) VH: QIQLVQSGPELKKPGETVKISCKASGYTFTTAGMQWVQKMPGKGFKWIGWINTHSGEPQYAEDFKGRFAFSLETSASTAYLQISNLKNEDTATYFCARSFYYHGSSFFYFDYWGQGTTLTVSS VL: DIVMTQSQKFMSTTVGDRVSITCKASQNVGTAVAWYQQKPGQSPKLLIYSASNRYTGVPDRFTGSGSGADFTLTISNMQSEDLADYFCQQYSRYPLTFGAGTKLELKR", "OD450 at 0.001 nM (OD450)": 0.36}

Would you kindly look at the next entry?
Documented OD450 at 0.001 nM of F1.42.8 (antibody, human IgG1, kappa, V domains shown, Human-murine chimeric antibody) VH: HVQLQQPGAELVKPGASVKLSCKASGYTFTSYWMHWVRQRPGQGLEWIEMIHPNSGSTNYNEKFKSKATLTVDKSSSTAYMQLSSLTSEDSAVYYCARGNYNSSLYAMDYWGQGTSVTVSS VL: DIQMTQTTSSLSASLGDRVTISCSASQGISNYLNWYQQKPDGTVKLLIYYASNLHSGVPSRFSGSGSGTAYSLTISNLEPEDIATYYCQQYSILPYTFGGGTKLEIKR : 0.08

Origin of the recorded values: patent US20260116991A1
